B1: CPEB3 Ribozyme (parent)
chain: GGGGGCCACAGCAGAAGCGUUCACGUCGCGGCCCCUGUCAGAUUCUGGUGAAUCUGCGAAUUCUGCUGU

Variants of: B1
PROTOCOL_TEXT: self-cleavage, relative activity (ratio to wild type); higher = more cleavage; co-transcriptional
VALUE_KIND: self-cleavage
One number for each entry.

The examples below pair each entry with its known result.
// query self-cleavage value for entry G41C U49A 0.988

// query self-cleavage value for entry G19C G47C 0.147

State recorded self-cleavage for all listed variants.
1. A15U G37C
2. U44C A59C

1. 0.179
2. 0.577

State recorded self-cleavage for all listed variants.
1. C33G U49C
2. G47A G65U
3. U53G U61C

0.645
0.858
0.473

State recorded self-cleavage for all listed variants.
1. U36A U61C
2. U46A C54A
3. G11A U64C

0.171
0.933
0.513
